- systemName: group 1: ZNF566 and ARNTL homologous peptide/HLA-A*02:01 complexes (mixed)
- testMethodNotes: SPR (BIAcore T200), crude scFv captured, mixed complexes flowed over
measuredQuantity: SPR binding level (RU)

[[record]]
binder = "49-AS170036 VL1VH1-56N98F108A (scFv) scFv: QSALTQPRSVSGSPGQSVTISCAGTSSDVGSENYVSWYQQHPGKAPKLMIYQVNKRASGVPDRFSGSKSGNTASLTISGLQAEDEADYYCASYRSSDFNIVFGGGTKLTVLGGGGSGGGGSGGGGSEVQLVESGGGLVQPGGSLRLSCAASGFTFSSYAMSWVRQAPGKGLEWVSTINSGTNSPYYADSVKGRFTISRDNSKNTLYLQMNSLRAEDTAVYYCAKNFFDGSWFLAPPAMDYWGQGTLVTVSSHHHHHH"
unitdescriptor = "RU"
recordedresult = 15.3

[[record]]
binder = "48-AS170036 VL1VH1-56Y98Q108S (scFv) scFv: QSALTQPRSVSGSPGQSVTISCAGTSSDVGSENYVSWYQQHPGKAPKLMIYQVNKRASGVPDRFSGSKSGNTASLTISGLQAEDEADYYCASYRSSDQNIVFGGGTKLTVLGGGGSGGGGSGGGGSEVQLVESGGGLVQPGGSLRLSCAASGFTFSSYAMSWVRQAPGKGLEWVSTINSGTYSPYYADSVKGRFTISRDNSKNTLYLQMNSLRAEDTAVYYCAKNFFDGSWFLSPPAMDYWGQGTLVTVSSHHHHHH"
unitdescriptor = "RU"
recordedresult = 9.3

